B1: KCNG1 (parent)
chain: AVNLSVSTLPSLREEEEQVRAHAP

# Variants of: B1
# procedure.details: protein stability index of a GFP-peptide fusion (GPS, HEK-293T) (PSI 1-6); higher = more stable;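 note: lentivirally expressed fusions sorted by FACS into six bins by GFP to DsRed ratio, PSI derived from sequencing read proportions per bin multiplied by bin number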
# setup.conditions: c terminus: a fixed tail appended
property: protein stability index
Note: the reply should be a number with no unit written.

Task item: Please give the measured protein stability index for this variant: AVNLSVSTLPSLRKEEEQVRAHAP [E14K]
Reply: 4.3

Task item: Tell me the measured protein stability index of AVNLSVSTLPSLREEEEQVRAKAP [H22K] , please.
Reply: 5.49

Task item: For AVNLSVSTLPSLREEEEQVVAHAP [R20V] , what is its reported protein stability index?
Reply: 4.94

Task item: Can you share its protein stability index? I mean this variant: FVNLSVSTLPSLREEEEQVRAHAP [A1F]
Reply: 2.57

Task item: Could you share which protein stability index value was measured for AVNLSVSTLVSLREEEEQVRAHAP [P10V] ?
Reply: 4.61

Task item: Please look up its protein stability index: AVNLSVSTLPSLREEEEQVRAHAT [P24T]
Reply: 5.36

Task item: Need protein stability index of AVNLSVSTLPSLIEEEEQVRAHAP [R13I] , thanks.
Reply: 4.68

Task item: Which measured protein stability index value corresponds to AVNLSVSTLPSWREEEEQVRAHAP [L12W] ?
Reply: 4.13

Task item: Report protein stability index for AVNLSVSTRPSLREEEEQVRAHAP [L9R] please.
Reply: 5.28

Task item: Recorded protein stability index of AVNLSVSTLPSLREEELQVRAHAP [E17L] , please.
Reply: 4.11

Task item: Fill in: protein stability index of HVNLSVSTLPSLREEEEQVRAHAP [A1H] is ___
Reply: 5.12

Task item: Entry AKNLSVSTLPSLREEEEQVRAHAP [V2K] has what protein stability index?
Reply: 5.63

// data source = the supplement of paper PMC10567573
